# System: MS2 coat protein
# method description: apparent KD of MS2 coat protein; designed switch direction (-1 OFF switch, 1 ON switch): -1; higher = weaker reporter binding
# condition set: Eterna round: R95; input ligand: none
Quick reference: apparent KD of MS2 coat protein of the listed items.
Write the answer as a number in nM, unit excluded.

Examples with answers:
biopolymer sequence	apparent KD of MS2 coat protein (nM)
CAGUACUACAAGCUAUGGGACAUGAGGAUCACCCAUGUUCGUCUUAUUGAUCUAGGUACGCUGACGUACCUAGAUCU [JL-sv1-2.19 Brourd mod] (puzzle: Sensor v3, turn-off variant 1)	15.9
GACAGACGAGCGUGAGCCGACAUGAGGAUCACCCAUGUGCUCGUCUUAUAACGUACUGUCACGUUAGUGAUAGUGCG [Sensor v3, turn-off variant 1 (MOD of Eli's v1-13 v.4)] (puzzle: Sensor v3, turn-off variant 1)	56.7
AAGUAUAGAGGAUAUAGUGAGUACUACAUGAGGAUCACCCAUGUUCUUCAAAGCGUAUUUCUAGAAGGCUGAUGAA [EX-5 Malc#15] (puzzle: Exclusion 5)	51.5

What value of apparent KD of MS2 coat protein has been recorded for this entry: AAAAAGAGAGGAUAUACAACAAAACAAAACAAAACAAACACACAUGAGGAUCACCCAUGUAGAAGGCUCGAAAA [Exclusion 2 #2] (puzzle: Exclusion 2)
19.3

Consider the sequence AGAUGUAGAUACCGAUCCUACAUGAGGAUCACCCAUGUAGCAAGACGUGCACGCGAAGCUCGUCAGACUACCAGAAG [salish99_TOv1_r3_083] (puzzle: Sensor v3, turn-off variant 1) and give its measured apparent KD of MS2 coat protein.
137

====

# System: MS2 coat protein
# method description: apparent KD of MS2 coat protein; designed switch direction (-1 OFF switch, 1 ON switch): -1; higher = weaker reporter binding
# condition set: input ligand: FMN 200 uM
apparent KD of MS2 coat protein values by entry
# unit: µM | format: bare number

Record excerpt, results attached:
biopolymer sequence	apparent KD of MS2 coat protein (µM)
CCUUGGUGAGGAUAUUGAAAAUCUGUCAUAUGCCGACAACUCAAGAAGGUACAUGAGGAUCACCCAUGUUGGGC [Eternabot (Original) Solution 18] (Eterna round: R97, puzzle: Exclusion 4)	0.107
GGUUUGCGGCAGGAUAUCCAUCCGCGGUGUGGUGGAGAAGGGCUGACAUGAGGAUCACCCAUGUGCGUCCUGGU [salish99_ex6_r4_021] (Eterna round: R97, puzzle: Exclusion 6)	0.0363
ACAUGUGUUGUAGGAUAUAGGACACAUGAGGAUCACCCAUGUGGAUUCAUGUCUAAGGAAGCGUCCUAGAAGGACGACAACAUG [Ex NG2 #26] (Eterna round: R96, puzzle: Exclusion NG 2)	0.0291
UGUUGUUACGUAGGAUAUGGCCAACAGGCCCUAGGAUAUGCGAAAGCAGAAGGAGCGCCAACAGGCGAGAAGGACGGGUUAACA [pwkr exNG2 2xF7 2xFMN.15] (Eterna round: R96, puzzle: Exclusion NG 2)	0.0502

As a next step, examine the sequence that follows.
Query (sequence): GCGGCUGACGUCAGGAUAUCCGUACCGUAUGGGUGGGAGAAGGGACAUGAGGAUCACCCAUGUUAAUCUAUUAA [Eternabot (L1) Solution 45] (Eterna round: R97, puzzle: Brourd's mod of Exclusion 4) ; field requested: apparent KD of MS2 coat protein
0.0627

====

# maps each entry to its apparent KD of K4 kissing-loop reporter
# Tested on: K4 kissing-loop RNA reporter;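 also: bound reporter read as fluorescence of individual clusters on recovered sequencing chips by microscopy, with normalized cluster intensities fitted with a binding model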
# method description: apparent KD of K4 kissing-loop reporter; higher = weaker reporter binding
# condition set: Eterna round: R107; input ligand: tryptophan 2.4 mM
All answers are understood in nM, so give the number only.

biopolymer sequence	tgt	measured metric	unit tag	value observed
AAGCAGUCACUCGAAGCCAUCGAAGAUGGGCGAGGACCGGUACGGCCGCCACUCGGAGUGAUGUUCCGAGGACUGCAAAAUAAAA [MatMod 4 - Jieux - Exclusion - Tryptophan A]	K4 kissing-loop RNA reporter	apparent KD of K4 kissing-loop reporter	nM	311
CAUUCUAUAUGCAGUGAUGUUGCAACUGAUACCAGUAUCGAAAGAUACCCUUGGCAGCGGAAAACCGCUACGUAAUUUAAGAAUG [Ex Theophylline A K4 22]	K4 kissing-loop RNA reporter	apparent KD of K4 kissing-loop reporter	nM	327
UGGAGUUGACGAAAAGUCAACUCCUGAGAAGGAGCGGACGAAAGUCCAGGUAGGUCGCUCACUACCAGUGAUGUUGGUACUUAAA [#OpenEnded 4]	K4 kissing-loop RNA reporter	apparent KD of K4 kissing-loop reporter	nM	192
ACGUCCGGGUUAAUCGUGGGCGUGGUGGAUACCAGUUCUUCAAUGAACCCUUGGCAGCCACGUGAGUGAUGUUCACGUGCGAUGA [#15 K4 Theophylline A Exclusion]	K4 kissing-loop RNA reporter	apparent KD of K4 kissing-loop reporter	nM	88.6
CCGGCCCAGCCGGAUACCAGUGCGCCGCAGGGAACGGCGGGCCCAGAGUGAUGUUCGGGACACCCUUGGCAGCCGCCUGGGUCGC [#2 Same State - Theophylline B Attempt #27 (HarryS)]	K4 kissing-loop RNA reporter	apparent KD of K4 kissing-loop reporter	nM	297

Query sequence follows.
Sample `GCAUCCUAUGCAGGAUAUUAGCAUUUGAGUGAUGUUCAGACUAGCGAAAGCUAGUCAAUUGCUGGUUAAGAAGGGCAUAGGAUGC` — what was its apparent KD of K4 kissing-loop reporter?
689

====

# System: MS2 coat protein
# method description: apparent KD of MS2 coat protein; designed switch direction (-1 OFF switch, 1 ON switch): 1; higher = weaker reporter binding
# condition set: input ligand: microRNA oligo, concentration not stated
measured metric: apparent KD of MS2 coat protein
Put your answer as a value accompanied by its unit after it.

Lab request: please report apparent KD of MS2 coat protein under test system MS2 coat protein for CCGAAAGGAGUAGGAUAUGUAGGAUAUGCCUACAUGAGGAUCACCCAUGUUCGCAUGGCAGAAGGACAGAAGGACACGGAAACG [pwkr ssNG2 2FMN + 1F5.12] (Eterna round: R96, puzzle: Same State NG 2)
113 nM

Under MS2 coat protein: apparent KD of MS2 coat protein value of AAUACAAAUAGUCAGGAUAUCAAAAAUAAGACAUGAGGAUCACCCAUGUAAUAAGUAAAAGUAAAUGAGAAGGGACAGGGUGAAA [JR_SS002_Sub401] (Eterna round: R96, puzzle: Same State 2) ?
197 nM

====

# Test system: MS2 coat protein
# method description: apparent KD of MS2 coat protein; designed switch direction (-1 OFF switch, 1 ON switch): 1; higher = weaker reporter binding
# condition set: input ligand: microRNA oligo, concentration not stated
apparent KD of MS2 coat protein: recorded values

For GGUGGGUUACUACCCACACAUGAGGAUCACCCAUGUUUUGGGAAGGAUAUGGUACCUAUUUGGUACCAGAAGGUCCUGUUGGUG [SS-NG3-LRO14] (Eterna round: R96, puzzle: Same State NG 3) , what is its reported apparent KD of MS2 coat protein?
0.445 µM

Can you look up the measured apparent KD of MS2 coat protein of CUGAGCAAGCAAGGAUAUCACGUCGAAUAGACGUGAGAAGGUGCUCCUUACAUGAGGAUCACCCAUGUAUAACAUGAAGCUCAG [SSNG1/10-A1] (Eterna round: R96, puzzle: Same State NG 1) for me?
0.869 µM

Value lookup for apparent KD of MS2 coat protein; key = GCUCGGCUGAUGGCCUACAUGAGGAUCACCCAUGUGAGUGGGCAGGAUAUCUAGAUUCAGGAUGUAGAGAAGGGCCUGCCGAGC [SameState NG3 #39] (Eterna round: R96, puzzle: Same State NG 3)
0.331 µM

Request the reported apparent KD of MS2 coat protein associated with AUGAAGAAUUAAGGAUAUUGAAUACAUAUGUUUAACAUGAGGAUCACCCAUGUGGGUUGCGGUAUCGAGAAGGUAAAUUAAUAG [Mat - same State NG 2 - JL mod - D90] (Eterna round: R96, puzzle: Same State NG 2)
0.156 µM

====

# Test system: MS2 coat protein
# method description: apparent KD of MS2 coat protein, switch ON state; designed switch direction (-1 OFF switch, 1 ON switch): -1; higher = weaker reporter binding
# condition set: FMN input: 0 or 200 uM; Eterna round: R93 (includes R88 designs)
measured metric: apparent KD of MS2 coat protein (nM)
State just the number; it will be interpreted in nM.

> print(dat)
                        biopolymer.sequence                  measured.metric  unit.tag  value.observed
1  AAAAGACAUGAGGAUCACCCAUGUCAGGAUAUGACUUGAAAAAUAAAAUAAAAACAUGUCAGAAGGGACAUGAA [Design 46: Sub-opt DB]  apparent KD of MS2 coat protein        nM            28.5
2  AAGCUGGUAGGAUAUACUAGGGCAACUAAUGCACCGAUAGGACAUGAGGAUCACCCAUGUAGAAGGGCCAGAAA [JR_Exc002_Sub404]  apparent KD of MS2 coat protein        nM            65.5
3  AACAAACAUGAGGAUCACCCAUGUGAGGAUAUACAAACAAACAAAAACAAAACAAAAAGUAGAAGGCACAACAA [JR_Exc001_Sub002]  apparent KD of MS2 coat protein        nM            19.4
4  AAGAACGGAGGAUAUACAAAAUAAAAGAAAAGAAAGAAAGAACAUGAGGAUCACCCAUGUAGAAGGCUGAAGAA [Merneferre Ay I]  apparent KD of MS2 coat protein        nM            35.7
5  AGGGAACAUGAGGAUCACCCAUGUGAGGAUAUACAAAAGAAAAGAAAAGAAAGAAGAAGUAGAAGGUACAAGAA [Neferka]  apparent KD of MS2 coat protein        nM            23.9

May I ask what apparent KD of MS2 coat protein has been recorded for ACCAGACAUGAGGAUCACCCAUGUCAGGAUAUGCAUCUUAGGAAAAAAAAACUAAGAUGCAGAAGGGACAAGGG [Design 5: Super Stable - A-U mutation] ?
16
